Documented chemical recovery by SPE of plasma across a set of compounds
test-details: chemical recovery by SPE of plasma after PDMS sampling; higher = better extraction
condition-notes: pooled human plasma; extraction method: HLB SPE of plasma after PES; equilibration time (d): 3
The response must be a number in % with no trailing unit.

Worked examples follow.
>>> test_result("Fc1ccc([C@@H]2CCNC[C@H]2COc2ccc3c(c2)OCO3)cc1")
3.11
>>> test_result("CCc1cccc(C)c1N(C(=O)CS(=O)(=O)O)C(C)COC (stereo unspecified)")
42.9
>>> test_result("O=S(=O)(O)c1ccccc1")
1.77
>>> test_result("O=c1ccc2ccccc2[nH]1 [2-Hydroxyquinoline]")
30.9
>>> test_result("CC12CC3CC(C)(C1)CC(N)(C3)C2 [Memantine]")
7.03

Next:
Query: Which chemical recovery by SPE of plasma is reported for this compound? Nc1ccccc1Br
Result: 1.14

====

test-details: chemical recovery by SPE of plasma after PDMS sampling; higher = better extraction
condition-notes: pooled human plasma; extraction method: HLB SPE of plasma after PES; equilibration time (d): 6
Lab note: anything with chemical recovery by SPE of plasma at or over 3% counts as fulfilled; the rest go in not fulfilled.

Consider the worked cases shown below.
>>> qualitative_label("CCNc1nc(NC(C)C)nc(SC)n1 [Ametryn]")
"fulfilled"
>>> qualitative_label("O=C(NC(=O)c1c(F)cccc1F)Nc1ccc(Cl)cc1 [Diflubenzuron]")
"fulfilled"
>>> qualitative_label("COCC(C)N(C(=O)CS(=O)(=O)O)c1c(C)csc1C (stereo not given) [Dimethenamid ESA]")
"fulfilled"
>>> qualitative_label("Clc1ccc(-c2ccc(Cl)cc2Cl)cc1 [PCB28]")
"not fulfilled"

Query: Decide: chemical recovery by SPE of plasma of COC(=O)Nc1nc2ccccc2[nH]1 [Carbendazim] >= 3%?
Result: fulfilled

Query: Same lookup for c1ccc(-c2cccc(-c3ccccc3)c2)cc1 [m-Terphenyl] , please.
Result: not fulfilled

Query: Entry CCCCCCCCCCCCCC(=O)NCCC[N+](C)(C)CCCS(=O)(=O)[O-] [Amidosulfobetaine-14] please
Result: fulfilled

Query: Another: O=c1[nH]c2ccccc2s1 [2-Hydroxybenzothiazole]
Result: fulfilled

====

test-details: chemical recovery into PDMS from spiked human plasma; higher = better extraction
condition-notes: pooled human plasma; extraction method: PES with PDMS; equilibration time (d): 1
property: chemical recovery into PDMS
Please give the number followed by its unit.

Example compounds with recorded chemical recovery into PDMS:
>>> test_result("CCCCC(CC)COC(=O)C(C#N)=C(c1ccccc1)c1ccccc1 (configuration not stated)")
"62.5%"
>>> test_result("O=C1Nc2ccc(Cl)cc2C(C#CC2CC2)(C(F)(F)F)O1 (configuration not stated)")
"44.7%"
>>> test_result("O=C(O)c1ccc(Cl)cc1Cl")
"0.268%"
>>> test_result("C[Si](Cn1cncn1)(c1ccc(F)cc1)c1ccc(F)cc1")
"41.3%"
>>> test_result("CN(C)CCC=C1c2ccccc2CCc2ccccc21")
"0.00525%"

Query: // returns reported chemical recovery into PDMS for input CCOC1Oc2ccc(OS(C)(=O)=O)cc2C1(C)C (configuration not stated) [Ethofumesate]
Result: 40.5%

Query: And then O=C(NC(=O)c1c(F)cccc1F)Nc1ccc(Cl)cc1 , what is it?
Result: 36.3%

Query: Param item: O=C1CCCC=CCCCCCCCCCC1
Result: 41.7%

Query: Try the compound CN/C(=N\[N+](=O)[O-])NCc1cnc(Cl)s1
Result: 0.813%

Query: Another compound to check: C=CC[C@@H]1/C=C(\C)C[C@H](C)C[C@H](OC)[C@H]2O[C@@](O)(C(=O)C(=O)N3CCCC[C@H]3C(=O)O[C@H](/C(C)=C/[C@@H]3CC[C@@H](O)[C@H](OC)C3)[C@H](C)[C@@H](O)CC1=O)[C@H](C)C[C@@H]2OC
Result: 23.3%

Query: Likewise for O=S(=O)(O)c1ccc2[nH]c(-c3ccccc3)nc2c1 ?
Result: 0.124%

Query: Consider next the compound CCC(=O)O[C@]1(C(=O)CCl)[C@@H](C)C[C@H]2[C@@H]3CCC4=CC(=O)C=C[C@]4(C)[C@@]3(F)[C@@H](O)C[C@@]21C [Clobetasol propionate] in the same way.
Result: 28.2%

Query: Same read-out for C=CCC1=C(C)C(OC(=O)C2C(C=C(C)C)C2(C)C)CC1=O (configuration not stated) ?
Result: 36%

Query: Another compound to look at: N#Cc1nn(-c2c(Cl)cc(C(F)(F)F)cc2Cl)c(N)c1S(=O)(=O)C(F)(F)F
Result: 27.8%

Cited source for all entries: the supplement of paper PMC10702517
